meta.source: paper PMC5703890

- Target System: T1, Aacec B (cecropin B) peptide (Aedes aegypti)
- T1 chain: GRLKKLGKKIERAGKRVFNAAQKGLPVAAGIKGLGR
- Protocol: EMSA; EMSA: 6% native polyacrylamide gel, LightShift chemiluminescent kit; buffer, salt, pH and temperature not given in the material (cited to earlier work)
- Conditions Used: tags: none stated for EMSA; conjugated to beads for pull-down; label: biotin; blunt
Reported Endpoint: binding result

nucleotide replacement 1 (TT to CC) (dsDNA) DNA 1: TCGAAATGCCGGAATCCCGG DNA 2: CCGGGATTCCGGCATTTCGA : no binding
nucleotide replacement 3 ((A/C)A to TA) (dsDNA) DNA 1: TCGAAATGTTGGTATCCCGG DNA 2: CCGGGATACCAACATTTCGA : no binding
nucleotide replacement 2 (GG to TA) (dsDNA) DNA 1: TCGAAATGTTTAAATCCCGG DNA 2: CCGGGATTTAAACATTTCGA : no binding
nucleotide replacement 4 ((A/C)A to CG) (dsDNA) DNA 1: TCGAAATGTTGGCGTCCCGG DNA 2: CCGGGACGCCAACATTTCGA : no binding
